Source of measurements: the supplement of paper PMC4466140

Target: CaRvs167
Experiment: SPOT peptide array binding signal intensity (averaged, normalized) (arbitrary units (background-subtracted, floor 0; scale differs between SH3 domains)); higher = stronger binding of the SH3 domain to the peptide
# SPOT peptide array binding signal intensity annotations
Could you respond with only the numeric value?

In the examples that follow, each entry is paired with its recorded SPOT peptide array binding signal intensity.
- binder: "PKMLPIPSKPTLFDL"
  endpoint-value: 47
- binder: "PSRRAPLQLPQLVNK"
  endpoint-value: 6
- binder: "HPRFVSPRIPSRIVK"
  endpoint-value: 230
- binder: "TYNRTAFQIPGDQSI"
  endpoint-value: 2.33

Challenge: Bench note: what SPOT peptide array binding signal intensity did "APPPPPRRATPEKKP" show?
Response given: 94.7
